# Method: chemical genetic growth profiling, strain panel (AID 1159580);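 note: tested at 20 µM; growth read once vehicle control cultures reached saturation at 30 °C; 1 = growth at the plate median or of vehicle wells; lower values mean less growth of the strain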
# Conditions Used: S. cerevisiae deletion strains, growth OD, locus YNL322C, strain KRE1 (second series), active compounds read low
The campaign covered roughly 5,500 compounds. About 2,000 (36%) were called active. Another 18% or so got no clear call; they are omitted. This is one part of the list.
Measured Endpoint: normalized growth

>  <Molecule>
CCOC(=O)c1oc2c(OC)c(O)cc(O)c2c(=O)c1-c1cc(OC)c(OC)c(OC)c1

>  <Measured Endpoint>
normalized growth

>  <Value Reported>
0.971

$$$$
>  <Molecule>
Oc1c(I)cc(Cl)c2cccnc12

>  <Measured Endpoint>
normalized growth

>  <Value Reported>
0.0819

$$$$
>  <Molecule>
C[C@H](N)[C@H](O)c1ccc(O)c(O)c1

>  <Measured Endpoint>
normalized growth

>  <Value Reported>
0.991

$$$$
>  <Molecule>
Nc1ccc(S(=O)(=O)Nc2ccc(Cl)nn2)cc1

>  <Measured Endpoint>
normalized growth

>  <Value Reported>
0.976

$$$$
>  <Molecule>
CC(C)(C)NC[C@@H](O)COc1nsnc1N1CCOCC1

>  <Measured Endpoint>
normalized growth

>  <Value Reported>
1

$$$$
>  <Molecule>
C=C[C@@H](C1=CC(=O)C(OC)=C(OC)C1=O)c1ccccc1

>  <Measured Endpoint>
normalized growth

>  <Value Reported>
0.911

$$$$
>  <Molecule>
C=C(CC)C(=O)c1ccc(OCC(=O)O)c(Cl)c1Cl

>  <Measured Endpoint>
normalized growth

>  <Value Reported>
1.02

$$$$
>  <Molecule>
CC(=O)/C(=C\c1ccccc1)CC(=O)O

>  <Measured Endpoint>
normalized growth

>  <Value Reported>
0.991

$$$$
>  <Molecule>
C/C=C/c1ccc2c(c1)OCO2

>  <Measured Endpoint>
normalized growth

>  <Value Reported>
1.02

$$$$
>  <Molecule>
CCN(CC)CCNC(=O)c1cc(S(C)(=O)=O)ccc1OC

>  <Measured Endpoint>
normalized growth

>  <Value Reported>
0.956

$$$$
>  <Molecule>
O=C1CCCC2C3CC(CN12)[C@@H]1CCCCN1C3 (stereo partly drawn)

>  <Measured Endpoint>
normalized growth

>  <Value Reported>
0.979

$$$$
>  <Molecule>
C[n+]1cccc(C(=O)[O-])c1

>  <Measured Endpoint>
normalized growth

>  <Value Reported>
0.948

$$$$
>  <Molecule>
NCCCC[C@H](N[C@@H](CCc1ccccc1)C(=O)O)C(=O)N1CCC[C@H]1C(=O)O

>  <Measured Endpoint>
normalized growth

>  <Value Reported>
1.02

$$$$
>  <Molecule>
C=CC(C1=CC(=O)C(OC)=CC1=O)c1ccc(OC)cc1 (stereo not drawn)

>  <Measured Endpoint>
normalized growth

>  <Value Reported>
0.996

$$$$
>  <Molecule>
C=CC(C1=CC(=O)C(OC)=CC1=O)c1ccc(O)cc1 (stereo not drawn)

>  <Measured Endpoint>
normalized growth

>  <Value Reported>
0.981

$$$$
>  <Molecule>
CC(=O)O[C@@H]1CC2C(C)(C)C=CC(=O)[C@]2(C)C2CC[C@@]3(C)[C@H](c4ccoc4)OC(=O)C4OC43[C@@]21C (stereo partly drawn)

>  <Measured Endpoint>
normalized growth

>  <Value Reported>
1

$$$$
>  <Molecule>
CC1(C)C(=O)C=C[C@@]2(C)C1=C(O)C(=O)[C@]1(C)C2CC[C@@]2(C)[C@H](c3ccoc3)C[C@H]3O[C@]321 (stereo partly drawn)

>  <Measured Endpoint>
normalized growth

>  <Value Reported>
0.981

$$$$
>  <Molecule>
NCC(O)c1ccc(O)cc1 (stereo not drawn)

>  <Measured Endpoint>
normalized growth

>  <Value Reported>
1

$$$$
>  <Molecule>
Oc1c(Br)cc(Br)c2cccnc12

>  <Measured Endpoint>
normalized growth

>  <Value Reported>
0.0637

$$$$
>  <Molecule>
C[C@H]1[C@H]2CCC3C4CC=C5C[C@@H](N(C)C)CC[C@]5(C)C4CC[C@@]32CN1C (stereo partly drawn)

>  <Measured Endpoint>
normalized growth

>  <Value Reported>
0.992

$$$$
>  <Molecule>
O=C(O)CCCCC1CCSS1 (stereo not drawn)

>  <Measured Endpoint>
normalized growth

>  <Value Reported>
0.97

$$$$
>  <Molecule>
CC(=O)O[C@H]1C[C@@H](OC(C)=O)C(C)(C)C2C[C@@H](OC(C)=O)[C@@]3(C)C4=CC(=O)O[C@@H](c5ccoc5)[C@]4(C)CCC3[C@]21C (stereo partly drawn)

>  <Measured Endpoint>
normalized growth

>  <Value Reported>
0.992

$$$$
>  <Molecule>
C=CC(C1=CC(=O)C(OC)=CC1=O)c1ccccc1 (stereo not drawn)

>  <Measured Endpoint>
normalized growth

>  <Value Reported>
0.969

$$$$

Values compiled from PubChem BioAssay AID1159580.
